target: c-Src SH2; assay: SH2 binding enrichment of the phosphorylated peptide, bacterial display (enrichment ratio); higher = better substrate or ligand; peptides without Tyr show the background
Label y for high-side SH2 binding enrichment (at or above 0.6) and n for low-side SH2 binding enrichment (below it).

1. KAIMTYVPSFF [ACTN4_Y260_S262P_YF] | y
2. MFQVQYNSSVD [LRFN1_Y458_YF] | n
3. VVRSLYEDLED [VHL_Y185_I180V] | y
4. LNPLFYSLRNK [OR5R1_Y290_I289F] | y
5. VNKIFHPDFIV [LIG3_Y768_Y768H_YF] | n
6. KDGSGYISAAE [CALM1_Y100_N98S] | n
7. IRTIDYRYTVS [IDS_Y497_W502S] | y
8. FSCLPCGRLAY [SLC52A2_Y305_Y305C] | y
9. AVPSLYASGRT [ACTA1_Y145_L142P] | n
10. LSVEIHDRREY [ITGB7_Y753_Y753H] | n
11. TRDTDYQMTKR [ADA_Y308_L304R] | n
12. KILGRYYETGS [PAX2_Y72] | y
13. RRFLFYFSFLL [PTEN_Y177_V175L_YF] | n
14. VNTTLYEKFTY [TEK_Y1108] | y
15. TSAEGYQDVRD [ABLIM1_Y439_P434T] | y
16. IGERTYGQVYK [CDK13_Y716_G714R] | n
17. FADIAYNFRQG [PAH_Y166_H170Q_YF] | n
18. KRISCYEASYQ [PFKFB3_Y194] | y
19. VKYGAYINDFK [GLB1_Y488_N484K] | y
20. KRIETYFSKNF [PLP1_Y50_L46R_YF] | n
21. MLEVSYVDRNS [F10_Y384_P383S] | n
22. DHCNQYEQQKM [CHD7_Y75_Y72C] | y
23. NYYDTCIKTCL [IQGAP2_Y1445_Y1445C] | y
24. RARIRYAQEHD [NSD1_Y1987] | n
25. DRLASNLDKVR [KRT10_Y160_Y160N] | n
26. LATINYPFEKG [NDUFS8_Y84_P79L] | n
27. QTEGEYSSLEH [IDH3B_Y171] | y
28. ALLVFYAATIA [SLC20A2_Y187_P184L] | y
29. MKGDYYRSLAE [YWHAG_Y131_Y133S] | n
30. HQPGEYIFHAE [FLT3_Y416] | n
31. NSNSDYVDILP [SH2D1B_Y127_V130I] | n
32. PESIPYRKFTT [NTRK1_Y701_L700P] | n
33. DVELLYPVKEK [EPHX1_Y283] | n
34. GYEEAYSVFKK [PAFAH1B1_Y28] | y
35. NFATLHLKIFH [PDE6B_Y219_Y219H_YF] | y
36. QNAGDYFDLFG [PTPN11_Y62_T59A_YF] | n
37. EEGNPYFSGAR [MCCC2_Y520_S523G_YF] | n
38. ARMTNYGLPRF [TSPAN12_Y138_YF] | n
39. DRPASYLEKVR [KRT13_Y118_L115P] | n
40. VQEDIYDEFVE [ALDH2_Y332] | n
41. LIHLHYIRRDY [BBS4_Y43_K46R] | y
42. NLDRFYQQVTK [SEC16A_Y1041] | y
43. GAVGHYVLAER [HFE_Y342_M339V] | y
44. QQLDKYQELLD [LMNA_Y359_E358K] | y
45. LYSNAYLNDLA [ALDH1A1_Y119] | y
46. PRNLIYFGEHP [TRPV6_Y201_C197R] | n
47. EEGNPSFSSAR [MCCC2_Y520_Y520S_YF] | n
48. WEQELYSQLVY [WAS_Y102] | y
49. TDLAFYLVCKG [ASL_Y376_R379C_YF] | n
50. LKGQVYILVRE [ASS1_Y359_G362V] | n
51. KTDKKYLMIKE [BAG3_Y451_E455K] | n
52. QSHKVYVQHLL [POR_Y604] | y
53. RGDCMYAPLLG [AR_Y269] | y
54. STQAHYRLSAF [ADAMTS9_Y100_S96T] | n

###

biological target: c-Src SH2; assay: SH2 binding enrichment of the phosphorylated peptide, bacterial display (enrichment ratio); higher = better substrate or ligand; peptides without Tyr show the background;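 also: peptide library displayed on the E. coli surface as eCPX fusions, selected cells deep-sequenced, score is each peptide's frequency after selection divided by its frequency in the input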
Assign yes to entries whose SH2 binding enrichment meets or exceeds 0.4; assign no to the rest.

1) MSNFACVKREV [SCN1A_Y1694_Y1694C] | yes
2) TRNVRYLTLDI [AKR1C2_Y305_N300T] | yes
3) ASPKSYPSQKH [CAP2_Y316_T311A] | no
4) PRPAGYPSMVS [CACNA1C_Y1832_T1835M] | no
5) EFKKHYGFSLF [ANXA3_Y295_YF] | yes
6) NTDETYSIDNE [TUBB2B_Y200_C201S] | yes
7) WQQQSYLFSGI [CTNNB1_Y30_D32Y_YF] | yes

###

molecular target: MERTK (UniProt Q12866); experiment: phosphorylation enrichment, bacterial display (enrichment ratio); higher = better substrate or ligand; peptides without Tyr show the background
Sequence (Q12866 whole entry, looked up): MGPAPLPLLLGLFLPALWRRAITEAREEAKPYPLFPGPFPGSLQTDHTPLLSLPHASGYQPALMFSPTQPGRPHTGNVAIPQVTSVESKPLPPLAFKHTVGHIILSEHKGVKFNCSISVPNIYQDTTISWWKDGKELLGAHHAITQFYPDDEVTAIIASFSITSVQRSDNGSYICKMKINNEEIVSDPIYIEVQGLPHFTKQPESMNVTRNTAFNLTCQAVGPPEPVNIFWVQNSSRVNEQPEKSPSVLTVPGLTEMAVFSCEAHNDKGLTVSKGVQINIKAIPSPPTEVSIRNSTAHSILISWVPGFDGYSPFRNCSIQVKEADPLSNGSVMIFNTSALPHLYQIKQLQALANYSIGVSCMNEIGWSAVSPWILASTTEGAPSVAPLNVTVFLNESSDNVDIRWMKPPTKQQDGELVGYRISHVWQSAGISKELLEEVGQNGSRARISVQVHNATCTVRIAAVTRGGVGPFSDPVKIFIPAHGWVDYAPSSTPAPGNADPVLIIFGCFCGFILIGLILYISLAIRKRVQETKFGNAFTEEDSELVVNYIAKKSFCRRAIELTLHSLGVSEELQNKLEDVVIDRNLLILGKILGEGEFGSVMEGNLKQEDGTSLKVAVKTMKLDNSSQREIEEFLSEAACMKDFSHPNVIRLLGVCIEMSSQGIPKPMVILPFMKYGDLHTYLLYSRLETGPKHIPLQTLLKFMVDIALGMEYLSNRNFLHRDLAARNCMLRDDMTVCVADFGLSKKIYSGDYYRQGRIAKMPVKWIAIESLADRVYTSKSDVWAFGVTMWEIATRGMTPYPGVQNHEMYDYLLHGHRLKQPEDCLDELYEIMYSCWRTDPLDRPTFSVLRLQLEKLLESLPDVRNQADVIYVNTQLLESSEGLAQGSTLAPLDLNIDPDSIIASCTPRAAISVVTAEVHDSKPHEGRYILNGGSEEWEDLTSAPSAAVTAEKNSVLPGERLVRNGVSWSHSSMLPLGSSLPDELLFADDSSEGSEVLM
Binary classification by phosphorylation enrichment, with 0.5 as an inclusive lower bound for 1; all other cases are -1.

1. VRSVDYVLFRS [FAM189B_Y361] | -1
2. RSFLSYYTSHV [NEFL_Y442_P440L] | 1
3. VNKGGYFSVNL [C3orf33_Y164_S160N] | -1
4. INMKEYCKKDF [NTN1_Y490_K489E_YF] | -1
5. SLEKSYKLPDG [ACTA1_Y242_E243K] | -1
6. ADCRFYTFPQM [GAMT_Y223_A224T_YF] | 1
7. SEPDLYYDPRG [PKP1_Y160_C161Y] | 1
8. ENRKYYMDLKE [PURA_Y156] | -1
9. KGVDRYNPENL [EIF3K_Y21_I18V] | -1
10. SSSGGYGGGYG [KRT19_Y61_A60G] | -1
11. LKGQVYILVRE [ASS1_Y359_G362V] | -1
12. GLAELYEYQKK [CKAP5_Y1854_K1857Q] | 1
13. KNDSNYVVKGN [KIT_Y823] | -1
14. LTQRTYMLENA [GPAA1_Y49_S51L] | 1
15. EPDSLYGCGRG [ATM_Y2019_G2023R] | -1
16. KVDKEYEVRVR [GHR_Y226] | -1
17. PEVRRYVLPLN [RPE65_Y368] | 1
18. RFWPRYVKVGS [NOG_Y172] | -1
19. KIPGRYFETGS [PAX2_Y72_L69P_YF] | -1
20. FQRLRYIKQLG [SAMHD1_Y146] | -1
21. LWPIWYRCRRP [MRGPRX1_Y130_H133R] | 1
22. GHMFAYDWISI [BEST1_Y227_L224M_YF] | 1
23. AAVLNYKAWRD [GRIN2A_Y737_G740W] | -1
24. CKLFQYFLDHL [ATRX_Y1849_YF] | 1
25. LEDDMYRKTCT [XPA_Y257] | 1
26. ALAAPYVLYPS [CEFIP_Y1332_G1337S] | 1
27. AGVDRYSLGTS [C5orf42_Y1451_P1446A] | -1
28. VRTSKYRGGGG [HBA1_Y141_L137R] | 1
29. LNPDGYEKAYE [CPXM2_Y427] | -1
30. SLQAHYDTPRS [DOK7_Y405_R402Q] | 1
31. SPFMLYQFLKQ [RPAP3_Y567_D564Y_YF] | 1
32. PRARTYCFKQE [KLHDC9_Y175_S171R_YF] | -1
33. YGLQAYTKVKT [ALDH2_Y502_E504K] | -1
34. AKGMKYLASKK [MET_Y1194] | -1
35. TEDPEYDVQSK [PTCHD3_Y335] | -1
36. TEALYYTDDPA [ADPRS_Y75_T79P] | 1
37. QQLDKYQELLD [LMNA_Y359_E358K] | -1
38. RRFLFYFSFLL [PTEN_Y177_V175L_YF] | 1
39. AKLDIYKRKVE [VWA3B_Y918_N916D] | -1
40. IEDNKYTAREG [HCK_Y411_E410K] | -1
41. RRVLVYVGRGA [QDPR_Y16_G17V] | 1
42. KGPNVCKKTVN [REV3L_Y1156_Y1156C] | -1
43. APGDAYGDAGF [SYP_Y250_YF] | -1
44. ILTLKYPIKHG [ACTA1_Y71_E74K] | -1
45. AALVQYFMEHH [PTPN11_Y80_E76A_YF] | -1
46. MSRDVYSTDCF [NTRK2_Y702_Y706C_YF] | 1
47. DRLASYPDKVR [KRT14_Y129_L130P] | -1
48. PEADKYRLTFA [FGG_Y300_YF] | -1
49. LPKEQYLYTKE [AFG3L2_Y614] | 1
50. IVAEYYDNLPH [DEGS1_Y284_A280V] | 1
51. HLVSEYQQFQD [TUBB3_Y422_D417H_YF] | -1
52. NKVQFYIPDMN [NCR1_Y84_K82Q] | -1

Ref: the supplement of paper PMC10065799
